- Test system: Yap1 mRNA
- protocol-notes: Antisense inhibition of human Yap1 in A-431 cells by cEt gapmers, single dose (Example 3, RTS36584)
- Assay type: cell-based
- condition-info: Table 34; Yap1 mRNA as percent of untreated control; 3-10-3 cEt gapmers targeting SEQ ID NO: 1 and 2; single dose
Strand notation (5' to 3'): a small letter for the sugar, then the base; units joined by * are phosphorothioate-linked, units joined directly phosphodiester-linked; [ ] holds rarer units or linkages, { } end groups; capitals alone tell only the bases. k = constrained ethyl (cEt); [5mC] = 5-methylcytosine; d = 2'-deoxy (DNA)
Binary classification by YAP1 (% UTC), with 60 % UTC as an inclusive lower bound for TRUE; all other cases are FALSE.

Query block: hey, is YAP1 (% UTC) for this one >= 60 % UTC? 1074836 (kA*kA*k[5mC]*dA*dA*d[5mC]*dA*dT*dG*d[5mC]*dT*dT*dG*k[5mC]*kG*kA; antisense) [compound 1074836]
Result block: FALSE

Query block: hey, is YAP1 (% UTC) for this one >= 60 % UTC? 1074932 (antisense kG*kG*kA*dG*dA*d[5mC]*dT*dA*dT*dA*d[5mC]*dA*dA*k[5mC]*kA*kG) [compound 1074932]
Result block: TRUE

Query block: hey, is YAP1 (% UTC) for this one >= 60 % UTC? 1075188 (kA*kG*kT*d[5mC]*dA*dA*d[5mC]*d[5mC]*dT*dG*dT*dA*dA*kT*kT*kA; antisense) [compound 1075188]
Result block: FALSE

Query block: hey, is YAP1 (% UTC) for this one >= 60 % UTC? 1076308 (kA*kG*kT*dA*dA*dT*dT*dA*d[5mC]*d[5mC]*dT*d[5mC]*dT*kA*kA*kT; antisense) [compound 1076308]
Result block: FALSE

Query block: hey, is YAP1 (% UTC) for this one >= 60 % UTC? 1074804 (kT*kA*kG*d[5mC]*dA*dA*dA*dG*dT*d[5mC]*dA*d[5mC]*dT*kT*k[5mC]*k[5mC]; antisense) [compound 1074804]
Result block: FALSE
